Tested on: cancer cell lines (A549, CEM, MCF-7, MIA PaCa-2, PC-3)
Assay: MTT cytotoxicity assay, several cancer cell lines together
Type: cell-based
Details: majority of the cell lines; read-out: IC50 values, majority of the cell lines
Text: CEM (lymphoma), A549 (lung), PC-3 (prostate), MIA PaCa-2 (pancreatic), MCF-7 and MDA-MB-231 (breast) cancer cells were purchased from ATCC. […] MTT (3-(4,5-dimethylthiazol-2-yl)-2,5-diphenyltetrazolium bromide) assay was employed to evaluate the proliferative capacity of cells. Essentially, MTT is a colorimetric assay, which utilizes the […] tetrazolium dye and converts it into a colored formazan salt, which can be quantified by measuring absorbance at 570 nm. […]
outcome.measure: IC50

Would you mind telling me what IC50 value was observed for COc1ccc2c(c1OC(=O)Nc1ccccc1)C(=O)O[C@@H]2[C@H]1c2c(cc3c(c2OC)OCO3)CCN1C [Compound 6] ? 50 to 250 µM

---

tested on: A549 (lung) cancer cells; assay: MTT cytotoxicity assay, A549; format: cell-based; conditions: Homo sapiens, A549, 48 h drug incubation
# maps each entry to its IC50
Just the number in µM, nothing appended.

Which IC50 is reported with A549 (lung) cancer cells for this entry: COc1ccc2c(c1OC)C(=O)O[C@@H]2[C@H]1c2c(cc3c(c2OC)OCO3)CCN1C [Noscapine] ? 73

Others:
Query for A549 (lung) cancer cells: what IC50 does the record show for COc1ccc2c(c1OC(=O)NCc1ccccc1)C(=O)O[C@@H]2[C@H]1c2c(cc3c(c2OC)OCO3)CCN1C [Compound 7] ? 25

---

system: PC-3 (prostate) cancer cells; assay: MTT cytotoxicity assay, PC-3; format: cell-based; settings: 48 h drug incubation
outcome.measure: IC50
Reply with a number, then the unit it belongs to.

So what does the record say about IC50 for COc1ccc2c(c1OC(=O)NCc1ccccc1)C(=O)O[C@@H]2[C@H]1c2c(cc3c(c2OC)OCO3)CCN1C [Compound 7] ? 49 µM

Look at this molecule and give its reported IC50. COc1ccc2c(c1OC(=O)c1ccccc1)C(=O)O[C@@H]2[C@H]1c2c(cc3c(c2OC)OCO3)CCN1C [Compound 4] 4.8 µM

I would be grateful if you could share the reported IC50 for COc1ccc2c(c1OC)C(=O)O[C@@H]2[C@H]1c2c(cc3c(c2OC)OCO3)CCN1C [Noscapine] . 51 µM

Give its IC50 value. Item: COc1ccc2c(c1OC(=O)Nc1ccccc1)C(=O)O[C@@H]2[C@H]1c2c(cc3c(c2OC)OCO3)CCN1C [Compound 6] 83.2 µM

Please report the recorded IC50 for CCNC(=O)Oc1c(OC)ccc2c1C(=O)O[C@@H]2[C@H]1c2c(cc3c(c2OC)OCO3)CCN1C [Compound 5] . 6.6 µM

***
// IC50 lookup, key: COc1ccc2c(c1OC(C)=O)C(=O)O[C@@H]2[C@H]1c2c(cc3c(c2OC)OCO3)CCN1C [Compound 3] 9.3 µM

src = patent US20140121233A1
